assay: Cmax in ICR mouse at 15 mg/kg, po; assay type: ADME, organism-based; details: in vivo
Experimental readout: Cmax (ng/mL)

[[record]]
chemical_string = "Cc1ccc(NS(=O)(=O)c2cccc(NC(=O)C(=O)N3CCC[C@@H]3CO)c2)c2[nH]cc(C#N)c12"
observed = 2120


====

system: HCT-116; test: Induction of RBM39 degradation in human HCT-116 cells at 0.1 to 1 uM incubated for 24 hrs by Western blot analysis; assay type: cell-based; conditions: dose 0.1-1 µM
Activity calls are given as the source filed them. The calls are words filed in the database; no cut-off is given here.
Experimental readout: Activity

[[record]]
chemical_string = "Cc1ccc(NS(=O)(=O)c2cccc(NC(=O)C(=O)N3CCC[C@@H]3CN)c2)c2[nH]cc(C#N)c12"
assayed_target = "HCT-116"
observed = "Active"

[[record]]
chemical_string = "NS(=O)(=O)c1ccc(S(=O)(=O)Nc2cccc3c(Cl)c[nH]c23)cc1"
assayed_target = "HCT-116"
observed = "Active"

[[record]]
chemical_string = "Cc1ccc(NS(=O)(=O)c2cccc(NC(=O)C(=O)N3CCCC[C@H]3CO)c2)c2[nH]cc(C#N)c12"
assayed_target = "HCT-116"
observed = "Active"

[[record]]
chemical_string = "Cc1ccc(NS(=O)(=O)c2cccc(NC(=O)C(=O)N3CCC[C@H]3CN)c2)c2[nH]cc(C#N)c12"
assayed_target = "HCT-116"
observed = "Active"


Numbers sourced from ChEMBL document CHEMBL6109117.
